Values were extracted from the kinase profiling compilation of Christmann-Franck et al. (2016).

Molecular target: STK17A (human)
Assay: KINOMEscan competition binding
Settings: compound 10.0 µM
experimental-readout: kinase still bound, per cent of control (%)
Reply with just the number (in %).

> print(dat)
                              smiles.string                     experimental.readout  reported
1   OCCCNc1cc(-c2ccnc(Nc3cccc(Cl)c3)n2)ccn1  kinase still bound, per cent of control       100
2  CCC(=O)N1CCN(c2ccc(-n3c(=O)ccc4cnc5ccc(-c6cnc7ccccc7c6)cc5c43)cc2C(F)(F)F)CC1  kinase still bound, per cent of control        93

QUERY: Any idea what kinase still bound, per cent of control was measured for CN(C)C/C=C/C(=O)Nc1cccc(Nc2ncc3c(n2)N(C)c2ccccc2C(=O)N3C)c1 ?
RESULT: 97

QUERY: Any idea what kinase still bound, per cent of control was measured for CCOc1cc2ncc(C#N)c(Nc3ccc(OCc4ccccn4)c(Cl)c3)c2cc1NC(=O)/C=C/CN(C)C ?
RESULT: 37

QUERY: Any idea what kinase still bound, per cent of control was measured for C=CC(=O)Nc1cc(NC(=O)c2ccc(C)c(NC(=O)c3ccno3)c2)cc(C(F)(F)F)c1 ?
RESULT: 100
